target: T1, full length human DLL4 on overexpressing CHO or HEK293 cells (human, UniProt Q9NR61 27-685); assay: FMAT, hNotch1/Fc on CHO-hDLL4, periplasmic extract
T1 construct: also called CHO-hDLL4; HEK293-hDII4
T1 sequence (Q9NR61 27-685 limits assumed): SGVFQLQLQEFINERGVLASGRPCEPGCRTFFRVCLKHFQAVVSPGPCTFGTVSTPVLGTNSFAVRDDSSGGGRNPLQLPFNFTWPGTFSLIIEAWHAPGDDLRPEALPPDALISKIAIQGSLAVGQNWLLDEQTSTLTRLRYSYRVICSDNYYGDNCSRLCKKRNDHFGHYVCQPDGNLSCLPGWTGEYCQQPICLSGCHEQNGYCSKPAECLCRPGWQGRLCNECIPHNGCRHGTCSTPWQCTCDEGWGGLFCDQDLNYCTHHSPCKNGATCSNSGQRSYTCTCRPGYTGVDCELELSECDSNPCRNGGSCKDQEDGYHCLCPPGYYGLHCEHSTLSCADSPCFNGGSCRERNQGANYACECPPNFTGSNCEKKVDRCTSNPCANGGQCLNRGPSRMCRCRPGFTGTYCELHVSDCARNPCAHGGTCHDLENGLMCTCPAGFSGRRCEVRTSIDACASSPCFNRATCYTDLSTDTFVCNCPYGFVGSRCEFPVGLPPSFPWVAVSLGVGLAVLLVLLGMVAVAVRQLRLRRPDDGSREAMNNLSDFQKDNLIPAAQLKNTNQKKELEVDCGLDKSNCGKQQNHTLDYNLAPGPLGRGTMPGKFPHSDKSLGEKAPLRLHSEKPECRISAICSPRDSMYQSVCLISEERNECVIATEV
Short version: FMAT hDLL4 % inhibition at least 80% is true (1), less is false (0).

Identify whether the reported FMAT hDLL4 % inhibition of the following binder is 80% or greater: DLLBII102F08 (VHH, tested as periplasmic extract; also called DLLBII102F8; not shown: C-terminal c-myc tag and His6 tag) VHH: EVQLVESGGGLVQTGDSLRLSCAASGSTFSNYRMGWFRQGPGKEREFVAAIGRNGQNTYYTDSVKGRFTVTRDNAKNMVYLQMNSLKPEDSAVYTCAASLRGWDTTRIDYEYWGQGTQVTVSS
true (1)

Identify whether the reported FMAT hDLL4 % inhibition of the following binder is 80% or greater: DLLBII107C03 (VHH, tested as periplasmic extract; also called DLLBII107C3; not shown: C-terminal c-myc tag and His6 tag) VHH: EVQLVESGGGLVQPGGSLRLSCEVSGSIGSVSDMRWYRQAPGLQYELVARITSGSITDYSDSVKGRFTISRDNAKNTVYLQMNSLKPEDTAVYYCNADVQHSAWLKPLTYWGQGTQVTVSS
false (0)

Identify whether the reported FMAT hDLL4 % inhibition of the following binder is 80% or greater: DLLBII112A03 (VHH, tested as periplasmic extract; also called DLLBII112A3; not shown: C-terminal c-myc tag and His6 tag) VHH: EVQLVESGGGLVQPGGSLRLSCAASGIRFSINGMGWYRQAPGKQREAVATITRGGIRDYTDSVKGRFTISRDIARNTVYLQMNNLKPEDSAVYYCNIDIYWGRGTQVTVSS
false (0)

Identify whether the reported FMAT hDLL4 % inhibition of the following binder is 80% or greater: DLLBII104A03 (VHH, tested as periplasmic extract; also called DLLBII104A3; not shown: C-terminal c-myc tag and His6 tag) VHH: EVQLVESGGGLVQAGGSLRLSCAASGDIPRIAAMGWYRQAPGKQRELVATVSNAATTRYADSAKGRFTISRDNAKTVSLQMDNLKPEDTGVYYCYSLATTVTPSWVNYWGQGTQVTVSS
true (1)

Identify whether the reported FMAT hDLL4 % inhibition of the following binder is 80% or greater: DLLBII83G01 (VHH, tested as periplasmic extract; also called DLLBII83G1; not shown: C-terminal c-myc tag and His6 tag) VHH: EVQLVESGGGLVQAGGSLRLSCAASGRTFSNYIMGWFRQAPGKEREFVAGISRYADYTGYADSVKGRFTISRDNVKNTVYLRMNSLKPDDTAVYYCAANEGYCSGYGCYEDSGQYDYWGQGTQVTVSS
true (1)

Identify whether the reported FMAT hDLL4 % inhibition of the following binder is 80% or greater: DLLBII58A11 (VHH, tested as periplasmic extract; not shown: C-terminal c-myc tag and His6 tag) VHH: EVQLVESGGGLVQAGGSLRLSCTTSERTVSRYSMGWFRQAPGKEREAVATISWSGDSTYYADSVKGRFTISRDNTKNTLYLQIDSLKPEDTAVYYCVAKPNLKYGSYWPPRGYDYWGQGTQVTVSS
true (1)

Identify whether the reported FMAT hDLL4 % inhibition of the following binder is 80% or greater: DLLBII115A05 (VHH, also called DLLBII115A5; 115A5; not shown: C-terminal c-myc tag and His6 tag) VHH: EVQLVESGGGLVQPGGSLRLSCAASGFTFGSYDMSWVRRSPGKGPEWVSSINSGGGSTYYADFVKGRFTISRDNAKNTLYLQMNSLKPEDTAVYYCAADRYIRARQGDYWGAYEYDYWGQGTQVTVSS
false (0)

FYI, the data here is from patent US20110195494A1.
